# Test system: SN12C renal
# Assay protocol: NCI tumour cell line growth inhibition, 48 h
Outcome measure: TGI

**Query** Any idea what TGI came out for COc1ccc(C2=Nn3c(C)nnc3S/C2=C\c2ccc(-c3ccc([N+](=O)[O-])cc3)o2)cc1 on SN12C renal?
**Result** 33.6 µM

**Query** Any idea what TGI came out for CCN(CC)C(=O)CCNC(C)Cc1c[nH]c2ccccc12 (stereo not given) on SN12C renal?
**Result** > 100 µM

Please go through the list and note TGI for each molecule.
1. COc1ccc(/C=C/C(=O)N[C@@H]2C(=O)N3[C@@H]2SC(C)(C)[C@@H]3C(=O)O)cc1OC
2. Cc1cccc(C)c1NC(=O)/C(CC(=O)CC(c1ccccc1)c1c(O)c2ccccc2oc1=O)=N/O (stereo not given)
3. Cc1cc(NS(=O)(=O)c2ccc(N=Nc3c(Nc4ccccc4)nn(-c4ccc(S(=O)(=O)Nc5ccncn5)cc4)c3C)cc2)no1
4. CCOc1ccc(-n2cc(-c3ccc(N(C)C)cc3)[n+]3c2CCCCC3)cc1
5. CNC(=S)c1nnsc1N
6. C/C(=N\Nc1nc2ccccc2[nH]1)c1ccc2ccccc2n1
7. CCOC(=O)C(/C=N/C(N)=S)=C(/O)c1ccccc1

**Result**
> 100 µM
> 100 µM
> 100 µM
19 µM
> 100 µM
7.57 µM
> 100 µM

**Query** Any idea what TGI came out for Cc1ccc(S(=O)(=O)N/N=C2/C3CC4CCC2C4C3)cc1 (stereo not given) on SN12C renal?
**Result** > 100 µM

* * *

For each record, write down the corresponding TGI.
# Tested on: HOP-18 NSCLC
# Assay protocol: NCI tumour cell line growth inhibition, 48 h
Give bare numbers, in µM.

**Query** Consider the compound shown here: Nc1c(-c2ccc(-c3c(N)[n+]([O-])c4ccccc4[n+]3[O-])cc2)[n+]([O-])c2ccccc2[n+]1[O-] What is its recorded TGI?
**Result** 20.2

Attention now shifts to the item below.
**Query** Consider the compound shown here: CC(=O)Oc1cc(OC(C)=O)c(OC(C)=O)c2c1CC1C(=O)C3(CCc4ccccc43)C(=O)C1C2 (stereo not given) What is its recorded TGI?
**Result** 43.6

* * *

# Tested on: K-562 leukemia
# Assay protocol: NCI tumour cell line growth inhibition, 48 h; in the data active means GI50 below about 0.43 µM; inactive means the rest
# output must be one of active, inactive

Solved entries (count: 2):
**Query** Outcome logged for O=C(Nc1ccc(-n2cc(-c3ccncc3)c(-c3ccc(Cl)c(O)c3)n2)cc1)c1ccc(Cl)c(C(F)(F)F)c1 in this assay:
**Result** active

**Query** Outcome logged for COc1nc(C(Cl)(Cl)Cl)c(Cl)c(OC)c1Cl in this assay:
**Result** inactive

***
**Query** Outcome logged for COc1cc(Cl)c(C)cc1NC(=O)c1cc2ccccc2cc1O in this assay:
**Result** inactive

**Query** Outcome logged for N=C(N)c1ccc(-c2ccc(-c3ccccc3)o2)o1 in this assay:
**Result** inactive

**Query** Outcome logged for CCc1cc(Cc2cc(CC)cc(C(C)(C)C)c2O)c(O)c(C(C)(C)C)c1 in this assay:
**Result** inactive

**Query** Outcome logged for COc1cc(/C=C2\CCCC3=C2N=C2SC=NN2C3c2cc(OC)c(OC)c(OC)c2)cc(OC)c1OC (stereo not given) in this assay:
**Result** inactive

**Query** Outcome logged for COc1ccc(-n2cc(-c3ccc(F)cc3)[nH]c2=O)cc1OC in this assay:
**Result** inactive

**Query** Outcome logged for Nc1ncnc2c1c(-c1ccc(Oc3ccccc3)cc1)nn2C[C@H]1SSC[C@H]1O in this assay:
**Result** active

**Query** Outcome logged for CCCCCCOc1ccc(/C=N/Nc2cc(C)nc3ccc(Br)cc23)cc1 in this assay:
**Result** inactive

**Query** Outcome logged for CCCCCCCCCCCC(=O)[O][Sn]([CH2]CCC)([CH2]CCC)[CH2]CCC in this assay:
**Result** active
